The values you see were collected from the kinase profiling compilation of Christmann-Franck et al. (2016).

Hi there, I'd appreciate the recorded kinase still bound, per cent of control for every entry that follows.
# Experimental system: UniProt Q9UF33
# Sequence (Q9UF33 whole entry, looked up): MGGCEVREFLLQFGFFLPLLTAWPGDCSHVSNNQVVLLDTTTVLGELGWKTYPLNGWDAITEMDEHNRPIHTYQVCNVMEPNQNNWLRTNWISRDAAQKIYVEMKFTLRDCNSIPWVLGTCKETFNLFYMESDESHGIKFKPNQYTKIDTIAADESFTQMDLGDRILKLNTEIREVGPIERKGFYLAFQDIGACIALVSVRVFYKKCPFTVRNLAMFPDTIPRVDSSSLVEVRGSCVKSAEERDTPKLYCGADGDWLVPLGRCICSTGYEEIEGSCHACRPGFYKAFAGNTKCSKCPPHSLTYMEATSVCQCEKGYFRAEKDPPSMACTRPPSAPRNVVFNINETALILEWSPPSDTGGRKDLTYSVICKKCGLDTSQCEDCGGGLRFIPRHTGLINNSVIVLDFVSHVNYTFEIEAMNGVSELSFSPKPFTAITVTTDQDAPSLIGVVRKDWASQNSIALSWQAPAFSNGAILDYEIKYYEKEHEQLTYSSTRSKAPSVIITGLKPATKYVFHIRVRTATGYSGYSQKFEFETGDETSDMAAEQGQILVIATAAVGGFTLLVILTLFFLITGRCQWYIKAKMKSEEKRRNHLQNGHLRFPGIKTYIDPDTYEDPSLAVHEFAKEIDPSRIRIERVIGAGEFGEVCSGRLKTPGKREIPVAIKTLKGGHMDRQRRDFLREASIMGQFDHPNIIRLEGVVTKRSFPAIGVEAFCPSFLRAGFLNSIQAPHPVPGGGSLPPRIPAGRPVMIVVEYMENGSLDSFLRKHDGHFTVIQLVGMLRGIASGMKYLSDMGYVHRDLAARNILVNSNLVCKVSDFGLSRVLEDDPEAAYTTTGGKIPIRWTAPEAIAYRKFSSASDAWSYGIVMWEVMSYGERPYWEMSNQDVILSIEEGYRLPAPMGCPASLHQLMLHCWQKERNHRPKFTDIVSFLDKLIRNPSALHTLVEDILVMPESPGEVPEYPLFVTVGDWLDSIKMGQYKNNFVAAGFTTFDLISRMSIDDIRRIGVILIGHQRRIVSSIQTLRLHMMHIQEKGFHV
# Experiment: KINOMEscan competition binding
# Particulars: compound 10.0 µM
One number for each entry, in %.

These solved cases illustrate the format of a correct answer.
> print(dat)
                                 smiles.str  assay.result
1  C=CC(=O)Nc1ccc(CN(C(=O)Nc2c(Cl)c(OC)cc(OC)c2Cl)c2cc(Nc3ccc(N4CCN(C)CC4)cc3)ncn2)cc1           100
2  CNC(=O)c1cc(Oc2ccc(NC(=O)Nc3ccc(Cl)c(C(F)(F)F)c3)cc2)ccn1           9.2
3  Cc1n[nH]c2ccc(-c3cncc(OC[C@@H](N)Cc4c[nH]c5ccccc45)c3)cc12           100
4  CCN1CCN(C(=O)Cc2ccc(Nc3ncc(F)c(Nc4ccc(C(=O)Nc5ccccc5Cl)cc4)n3)cc2)CC1            46
5  C=CC(=O)Nc1cc(-n2c(=O)ccc3cnc4ccc(-c5cn[nH]c5)cc4c32)ccc1C            94

Quick one: give me kinase still bound, per cent of control for each item below, same order please.
1. NC(=O)Nc1cc(-c2cccc(F)c2)sc1C(=O)N[C@@H]1CCCNC1
2. COc1cc2ncn(-c3cc(OCc4ccccc4C(F)(F)F)c(C(N)=O)s3)c2cc1OC
3. CS(=O)(=O)N1CCN(Cc2cc3nc(-c4cccc5[nH]ncc45)nc(N4CCOCC4)c3s2)CC1

# output
[8.2, 59, 100]

# input // lookup kinase still bound, per cent of control for COc1cc2ncnc(-n3nc(-c4ccccn4)nc3N)c2cc1OC
# output 23

###

# Experimental system: AURKA (human)
# Experiment: KINOMEscan competition binding
# Particulars: compound 10.0 µM
Hi there, I'd appreciate the recorded kinase still bound, per cent of control for every entry that follows.
// unit must come after the numeric part

> print(dat)
                                 smiles.str  assay.result
1  CNC(=O)c1cc(Oc2ccc(NC(=O)Nc3ccc(Cl)c(C(F)(F)F)c3)cc2)ccn1           80%
2  COc1cc(C(=O)N2CCC(N3CCN(C)CC3)CC2)ccc1Nc1ncc2c(n1)N(C)c1ccccc1C(=O)N2C          1.2%
3  CCN1CCN(C(=O)Cc2ccc(Nc3ncc(F)c(Nc4ccc(C(=O)Nc5ccccc5Cl)cc4)n3)cc2)CC1          0.5%

# input // lookup kinase still bound, per cent of control for Cc1n[nH]c2ccc(-c3cncc(OC[C@@H](N)Cc4c[nH]c5ccccc45)c3)cc12
# output 100%

###

# Experimental system: SNRK (human)
# Experiment: KINOMEscan competition binding
# Particulars: compound 10.0 µM
Property label: kinase still bound, per cent of control (%)
Answers are plain numbers, in %.

These solved cases illustrate the format of a correct answer.
> print(dat)
                                 smiles.str  assay.result
1  CNC(=O)c1cc(Oc2ccc(NC(=O)Nc3ccc(Cl)c(C(F)(F)F)c3)cc2)ccn1           100
2  C=CC(=O)Nc1cc(-n2c(=O)ccc3cnc4ccc(-c5cn[nH]c5)cc4c32)ccc1C           100
3  C[C@@H](Oc1cc(-c2cnn(C3CCNCC3)c2)cnc1N)c1c(Cl)ccc(F)c1Cl           100
4  COCC(=O)NC/C=C/c1ccc2ncnc(Nc3ccc(Oc4ccc(C)nc4)c(C)c3)c2c1            71
5  COc1cc2ncn(-c3cc(OCc4ccccc4C(F)(F)F)c(C(N)=O)s3)c2cc1OC            83

API: the following record is the query input.
# input // lookup kinase still bound, per cent of control for O=C1NC(=O)/C(=C/c2ccc3nccc(-c4ccncc4)c3c2)S1
# output 100

###

# Experimental system: CAMK2B (human) (UniProt Q13554)
# Sequence (Q13554 whole entry, looked up): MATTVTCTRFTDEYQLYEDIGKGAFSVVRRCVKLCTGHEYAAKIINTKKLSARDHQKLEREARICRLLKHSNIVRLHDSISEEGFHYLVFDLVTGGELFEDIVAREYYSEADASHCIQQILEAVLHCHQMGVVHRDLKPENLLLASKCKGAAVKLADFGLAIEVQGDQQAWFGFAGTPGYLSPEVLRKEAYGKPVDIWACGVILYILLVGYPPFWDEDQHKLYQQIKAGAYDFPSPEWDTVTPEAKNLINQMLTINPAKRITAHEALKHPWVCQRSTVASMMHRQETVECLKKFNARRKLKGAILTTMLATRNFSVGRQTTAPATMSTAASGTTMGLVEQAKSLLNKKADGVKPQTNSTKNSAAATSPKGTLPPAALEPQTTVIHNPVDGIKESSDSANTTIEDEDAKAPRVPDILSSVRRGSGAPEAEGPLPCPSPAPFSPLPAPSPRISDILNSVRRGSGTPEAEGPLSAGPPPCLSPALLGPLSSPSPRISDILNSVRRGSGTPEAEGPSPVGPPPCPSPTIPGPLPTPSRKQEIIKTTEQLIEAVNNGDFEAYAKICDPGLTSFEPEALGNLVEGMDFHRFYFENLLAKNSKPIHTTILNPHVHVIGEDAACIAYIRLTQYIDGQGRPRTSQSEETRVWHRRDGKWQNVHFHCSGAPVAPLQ
# Experiment: KINOMEscan competition binding
# Particulars: compound 10.0 µM
Property label: kinase still bound, per cent of control

These solved cases illustrate the format of a correct answer.
> print(dat)
                                 smiles.str  assay.result
1  O=c1cc(N2CCOCC2)oc2c(-c3cccc4c3sc3ccccc34)cccc12           80%
2  CCN(CC)CCCCNc1ncc2c(n1)N(C)C(=O)N(c1c(Cl)c(OC)cc(OC)c1Cl)C2          100%
3  CNC(=O)c1cc(Oc2ccc(NC(=O)Nc3ccc(Cl)c(C(F)(F)F)c3)cc2)ccn1           84%
4  C=CC(=O)Nc1cc(-n2c(=O)ccc3cnc4ccc(-c5cn[nH]c5)cc4c32)ccc1C           44%
5  O=C1NC(=O)/C(=C/c2ccc3nccc(-c4ccncc4)c3c2)S1          9.6%
6  COc1cc2ncn(-c3cc(OCc4ccccc4C(F)(F)F)c(C(N)=O)s3)c2cc1OC           75%

Quick one: give me kinase still bound, per cent of control for each item below, same order please.
1. CN(C)C/C=C/C(=O)Nc1ccc(C(=O)Nc2cccc(Nc3nccc(-c4cccnc4)n3)c2)cc1
2. NC(=O)Nc1cc(-c2cccc(F)c2)sc1C(=O)N[C@@H]1CCCNC1
3. CNC(=O)c1ccc(Nc2cc(Nc3ccccc3S(=O)(=O)C(C)C)c3cc[nH]c3n2)nc1
4. N#CCNC(=O)c1ccc(-c2ccnc(Nc3ccc(N4CCOCC4)cc3)n2)cc1
5. COc1ccc(N(C(=O)Oc2c(C)cccc2C)c2ccnc(Nc3ccc(N4CCN(C)CC4)cc3)n2)c(OC)c1

# output
["60%", "19%", "100%", "14%", "98%"]

###

# Experimental system: GRK1 (human)
# Experiment: KINOMEscan competition binding
# Particulars: compound 10.0 µM
Hi there, I'd appreciate the recorded kinase still bound, per cent of control for every entry that follows.
Give bare numbers, in %.

These solved cases illustrate the format of a correct answer.
> print(dat)
                                 smiles.str                           property.label  assay.result
1  COc1cc2ncn(-c3cc(OCc4ccccc4C(F)(F)F)c(C(N)=O)s3)c2cc1OC  kinase still bound, per cent of control            96
2  CCN1CCN(C(=O)Cc2ccc(Nc3ncc(F)c(Nc4ccc(C(=O)Nc5ccccc5Cl)cc4)n3)cc2)CC1  kinase still bound, per cent of control           100
3  COc1cc(N2CCN(C)CC2)ccc1Nc1ncc2c(n1)N(C)c1ccccc1C(=O)N2C  kinase still bound, per cent of control           100

Quick one: give me kinase still bound, per cent of control for each item below, same order please.
1. CN(C)C/C=C/C(=O)Nc1ccc(C(=O)Nc2cccc(Nc3nccc(-c4cccnc4)n3)c2)cc1
2. COCC(=O)NC/C=C/c1ccc2ncnc(Nc3ccc(Oc4ccc(C)nc4)c(C)c3)c2c1
3. COc1cc2ncnc(-n3nc(-c4ccccn4)nc3N)c2cc1OC

# output
[98, 100, 41]

Quick one: give me kinase still bound, per cent of control for each item below, same order please.
1. C[C@@H](Oc1cc(-c2cnn(C3CCNCC3)c2)cnc1N)c1c(Cl)ccc(F)c1Cl
2. O=C1NC(=O)/C(=C/c2ccc3nccc(-c4ccncc4)c3c2)S1
3. CNC(=O)c1cc(Oc2ccc(NC(=O)Nc3ccc(Cl)c(C(F)(F)F)c3)cc2)ccn1
4. CCN(CC)CCCCNc1ncc2c(n1)N(C)C(=O)N(c1c(Cl)c(OC)cc(OC)c1Cl)C2
5. CS(=O)(=O)N1CCN(Cc2cc3nc(-c4cccc5[nH]ncc45)nc(N4CCOCC4)c3s2)CC1
6. O=c1cc(N2CCOCC2)oc2c(-c3cccc4c3sc3ccccc34)cccc12

# output
1: 92; 2: 22; 3: 100; 4: 100; 5: 100; 6: 100

###

Hi there, I'd appreciate the recorded kinase still bound, per cent of control for every entry that follows.
# Experimental system: PIP4K2B (human)
# Experiment: KINOMEscan competition binding
# Particulars: compound 10.0 µM
One number for each entry, in %.

These solved cases illustrate the format of a correct answer.
> print(dat)
                                 smiles.str                           property.label  assay.result
1  N#CCNC(=O)c1ccc(-c2ccnc(Nc3ccc(N4CCOCC4)cc3)n2)cc1  kinase still bound, per cent of control            89
2  O=c1cc(N2CCOCC2)oc2c(-c3cccc4c3sc3ccccc34)cccc12  kinase still bound, per cent of control           100
3  COCC(=O)NC/C=C/c1ccc2ncnc(Nc3ccc(Oc4ccc(C)nc4)c(C)c3)c2c1  kinase still bound, per cent of control           100
4  C=CC(=O)Nc1cc(-n2c(=O)ccc3cnc4ccc(-c5cn[nH]c5)cc4c32)ccc1C  kinase still bound, per cent of control            73
5  NC(=O)Nc1cc(-c2cccc(F)c2)sc1C(=O)N[C@@H]1CCCNC1  kinase still bound, per cent of control           0.2

Quick one: give me kinase still bound, per cent of control for each item below, same order please.
1. O=C1NC(=O)/C(=C/c2ccc3nccc(-c4ccncc4)c3c2)S1
2. CCN(CC)CCCCNc1ncc2cc(-c3cc(OC)cc(OC)c3)c(NC(=O)NC(C)(C)C)nc2n1
3. CNC(=O)c1cc(Oc2ccc(NC(=O)Nc3ccc(Cl)c(C(F)(F)F)c3)cc2)ccn1
4. C=CC(=O)Nc1ccc(CN(C(=O)Nc2c(Cl)c(OC)cc(OC)c2Cl)c2cc(Nc3ccc(N4CCN(C)CC4)cc3)ncn2)cc1

# output
[4, 100, 94, 100]
